# Tested on: KM-20L2
# measurement protocol: NCI tumour cell line growth inhibition, 48 h
Active and inactive are the calls of the source. Rule as the data show it: active = GI50 up to about 1.1 µM and inactive = higher.
Outcome codes: 1 (active), 0 (inactive)

>>> df
                                   compound  test_target  discrete_label
0               Cc1cc2c(s1)C(=O)c1sccc1C2=O      KM-20L2               0
1  Cc1cc(NS(=O)(=O)c2ccc(Nc3c4ccccc4nc4c(C(=O)Nc5ccc(S(=O)(=O)N=C(N)N)cc5)ccc(Cl)c34)cc2)no1      KM-20L2               0
2                              NCCCOCC(=O)O      KM-20L2               0
3       Cc1c(CCCl)c(Cl)n2c(nc3ccccc32)c1C#N      KM-20L2               1
4  CC1Oc2c(c(O)cc3oc(=O)cc(-c4ccccc4)c23)C(=O)C1C (stereo unspecified)      KM-20L2               0
5  COc1cc(C2c3cc4c(cc3[C@H](OCCN(C)C)[C@@H]3COC(=O)C23)OCO4)cc(OC)c1O (stereo partly specified)      KM-20L2               1

// provenance: ChEMBL document CHEMBL1201862
